assay: NCI Yeast Anticancer Drug Screen. Data for the rad52 strain (AID 147); conditions: S. cerevisiae rad52 mutant growth inhibition; at 100.0 µM
About 79,000 compounds went through this panel and 15% of them were active in at least one assay; those are over-represented in the sample as a whole. The source made the active and inactive calls. Cut-off read from the data, not from the text of the source: active = growth inhibition above about 70%; inactive = the rest.
Labels: True (active), False (inactive)

{"test smiles": "Cc1ccc(P(c2ccc(C)cc2)c2ccc(C)cc2)cc1", "class name": "False"}
{"test smiles": "COc1cc(C(C)(C)C)cc(OC)c1C(O)(c1c(OC)cc(C(C)(C)C)cc1OC)c1c(OC)cc(C(C)(C)C)cc1OC", "class name": "True"}
{"test smiles": "Cc1ccc(S(=O)(=O)N/N=C/c2c(O)ccc3ccccc23)cc1", "class name": "True"}

Origin of values: PubChem BioAssay (NCI)
